src = ChEMBL document CHEMBL4513216

Test system: Plasmodium berghei
experiment: Screen against P. berghei liver stage (PbLuc), transformed with Luciferase, at 10uM
Format: functional, HepG2
condition set: tested at 10 uM
Among all 69,000 compounds or so, about 8,600 (12%) showed an effect of 50% or more. Only a selection was taken, and strong results are over-represented in it overall.
measurement name: INHIBITION (%)
One number for each entry, in %.

Items follow; give INHIBITION for each.
1. COc1ncccc1CN1C[C@@H]2C[C@@H](C(=O)NCC3CC3)N(C)[C@@H]2C1
2. CC(NCCCc1cnn(C)c1)c1ccc(Cl)s1 (stereo not drawn)
3. O=C(c1cccc(Cn2ccnc2)c1)N1CCCC(n2ccnc2)C1 (stereo not drawn)
4. Cc1ccnc(OC[C@@]23CCO[C@@H]2CCN(S(C)(=O)=O)C3)n1
5. CCNC(=O)NC(=O)CNC(C)(C)c1ccc2c(c1)OCO2
6. CN(C)C(=O)N1C[C@H]2CC[C@@H](C1)N(C(=O)c1c(Cl)cccc1Cl)C2

output:
1. 27.2
2. 51.7
3. 22.3
4. 57.1
5. -12.2
6. 12.1

Below is a list of compounds. For each, state its recorded INHIBITION.
1. Cc1ccc(C(=O)N2CCn3cc(CN4CCCCC4)nc3C2)o1
2. CC(=O)Nc1ncc(S(=O)(=O)Nc2ccc(C)cc2)s1

output:
[17.4, 77.2]

* * *

Tested on: Plasmodium berghei
experiment: Screen against P. berghei liver stage (PbLuc), transformed with Luciferase, at 10uM
Format: functional, HepG2
condition set: tested at 10 uM
In all, about 69,000 compounds went through this assay and about 8,600 (12%) showed an effect of 50% or more. The full list was thinned out, with strong results kept by preference.
measurement name: INHIBITION
I'd appreciate it if you wrote the number followed by its unit.

>  <molecule>
CC(C)c1cc(NC(=O)CN2CCC(C(N)=O)CC2)on1

>  <measurement target>
Plasmodium berghei

>  <INHIBITION>
9.64%

$$$$
>  <molecule>
CC(C)c1cc(NC(=O)CN2CCNC(=O)C2)on1

>  <measurement target>
Plasmodium berghei

>  <INHIBITION>
20.6%

$$$$
>  <molecule>
Cc1cnn(CC2CCCCN2C(=O)Cn2nc(C)c(Cl)c2C)c1 (centres undefined)

>  <measurement target>
Plasmodium berghei

>  <INHIBITION>
13.8%

$$$$
>  <molecule>
CC(C1CCN(Cc2cnn(C)c2C2CC2)CC1)N(C)C (centres undefined)

>  <measurement target>
Plasmodium berghei

>  <INHIBITION>
50.7%

$$$$
>  <molecule>
CC(C)c1cc(NC(=O)CN2CCC(N3CCCCC3)CC2)on1

>  <measurement target>
Plasmodium berghei

>  <INHIBITION>
74.1%

$$$$
>  <molecule>
COc1ccc2cc(C(=O)NCCc3nc(C)no3)[nH]c2c1

>  <measurement target>
Plasmodium berghei

>  <INHIBITION>
-1.79%

$$$$

Give INHIBITION for each listed item.
1. O=C(CC1=CCCCC1)Nc1ncn(CC(=O)N2CCCCCC2)n1
2. CN(Cc1ccncc1)C(CO)c1cccc(F)c1 (centres undefined)

output:
["-18.4%", "68.5%"]

Please give INHIBITION for each item listed below.
1. CC(C)c1cc(NC(=O)CN2CCC(N3CCNC3=O)CC2)on1
2. COc1cc(F)ccc1N(C)Cc1ccncc1
3. Cc1nn(C)c(N(C)C)c1CNC1CCc2cc(F)ccc21 (centres undefined)
4. c1ccc(Cc2nnc(CN3CCc4cncnc4C3)o2)cc1
5. CC(C)c1cc(NC(=O)CN2CCCC(Cn3cncn3)C2)on1 (centres undefined)

output:
["17.3%", "-24.9%", "27.4%", "-31.3%", "5.58%"]

input: Using the record for CN(Cc1nccn1C)C(CO)c1cccc(Br)c1 (centres undefined) , state its measured INHIBITION.
output: 33.7%

* * *

So I've got a bunch of compounds here, and I need their INHIBITION values.
Test system: Plasmodium berghei
experiment: Screen against P. berghei liver stage (PbLuc), transformed with Luciferase, at 10uM
Format: functional, HepG2
condition set: tested at 10 uM
Screen size: about 69,000 compounds; about 8,600 (12%) showed an effect of 50% or more. What follows is part of a selection rich in strong results, with near analogues and random picks from the rest.
One number for each entry, in %.

In the examples that follow, each entry is paired with its recorded INHIBITION.
>  <compound>
Cc1nc(C)n(CC2CCCN2Cc2nnc(-c3ccco3)o2)n1 (configuration not stated)

>  <measurement target>
Plasmodium berghei

>  <INHIBITION [%]>
50

$$$$
>  <compound>
CNC(=O)CN1CCO[C@H]2CN(CC3CCOCC3)C[C@H]21

>  <measurement target>
Plasmodium berghei

>  <INHIBITION [%]>
13.7

$$$$
>  <compound>
CC(C)NC(=O)CN(C)CC(=O)Nc1ccnn1C(C)C1CC1 (configuration not stated)

>  <measurement target>
Plasmodium berghei

>  <INHIBITION [%]>
-164

$$$$
>  <compound>
COC(=O)c1oc(CNC(C)(C)CO)cc1C

>  <measurement target>
Plasmodium berghei

>  <INHIBITION [%]>
-3.35

$$$$
>  <compound>
Cc1cnn(C2CCCN(C(=O)c3ccc4c(c3)CCC4)C2)c1 (configuration not stated)

>  <measurement target>
Plasmodium berghei

>  <INHIBITION [%]>
40.2

$$$$

Would you be so kind as to report INHIBITION for each listed record?
1. CN(C)CCN1CCC2(CCN(C(=O)c3ccncc3)CC2)C1=O
2. CN(C)CCN1CCC2(CCN(C(=O)c3cccc(F)c3)CC2)C1=O
3. O=C(Nc1nc2c(s1)CCC2)c1cccnc1N1CCOCC1

output:
1. 13.7
2. 0.112
3. 34

For each of the compounds below, state INHIBITION.
1. COc1ccccc1CN1C(=O)O[C@@H]2CN(CC3CC3)C[C@@H]21
2. O=C1CC(c2ccsc2)c2snc(C(=O)O)c2N1 (configuration not stated)
3. Fc1cccc(Cc2cncc(C3CCCN3C3CCOCC3)n2)c1 (configuration not stated)
4. CCc1ccc(C(=O)N2CCC3(CCC(=O)N(CCN(C)C)C3)CC2)[nH]1
5. CCn1nc(C)cc1C(=O)N1C[C@@H]2C[C@@H](C)O[C@@H]2C1
6. Cc1ccc(CNC(=O)c2nn(C)c3c2CS(=O)(=O)CC3)o1

output:
-0.613
72.6
41.1
70.4
1.7
30.8

Below is a list of compounds. For each, state its recorded INHIBITION.
1. Cc1c(C(=O)N2CCC3(CCC(=O)N(CCN(C)C)C3)CC2)ccn1C
2. CN(C)[C@@H]1CN(Cc2ccc(O)cc2)C[C@H]1c1cn(C)c2ccccc12
3. Cc1ncc(CNCCO)c2cc(C(=O)c3ccc(Br)cc3)oc12
4. CC(=O)N1CCN(c2cc(CCNC(=O)C(C)C)nc(C3CC3)n2)CC1
5. O=C1CC(c2ccccc2)c2snc(C(=O)O)c2N1 (configuration not stated)

output:
[34, 40.9, 59.2, 18.3, 12.6]

* * *

Test system: Plasmodium berghei
experiment: Screen against P. berghei liver stage (PbLuc), transformed with Luciferase, at 10uM
Type: functional, HepG2
condition set: tested at 10 uM
Among all 69,000 compounds or so, about 8,600 (12%) showed an effect of 50% or more. Shown is part of a subset that was picked to be rich in strong results.
Would you kindly list INHIBITION for each of these compounds?
One number for each entry, in %.

Known results for compounds:
>  <compound>
COCCN(C)C[C@@H]1CCC[C@@H]2CN(c3ncccn3)C[C@@H]21

>  <INHIBITION [%]>
26

$$$$
>  <compound>
COCCC1(C(=O)O)CCCN(c2cc(C)c3ccccc3n2)C1 (stereo unspecified)

>  <INHIBITION [%]>
20.2

$$$$

Field: INHIBITION. Fill in for each record below.
1. Cn1nccc1-c1nnn2c1COCC(CNC1CCOCC1)C2 (stereo unspecified)
2. CNC(=O)Cc1ccc(-n2ccnc2-c2ccc(C(=O)O)s2)cc1
3. Cc1nccn1-c1ccc(=O)n(CCNC(=O)Cc2ccccc2)n1
4. Cc1cc(N2CCC(CO)(CC3CCCCO3)CC2)nc2ccccc12 (stereo unspecified)

output:
1: 45.7; 2: 51.2; 3: 13.8; 4: 53

* * *

Assign INHIBITION to each entry below.
Test system: Plasmodium berghei
experiment: Screen against P. berghei liver stage (PbLuc), transformed with Luciferase, at 10uM
Format: functional, HepG2
condition set: tested at 10 uM
In all, about 69,000 compounds went through this assay and about 8,600 (12%) showed an effect of 50% or more. The sample holds strong results, similar compounds and a random draw of the others, so the mix is not that of the screen.
Give bare numbers, in %.

Worked examples follow.
>  <compound>
CCOc1ccccc1C(C(=O)O)N(C)CC1CCOCC1 (stereo unspecified)

>  <result unit>
%

>  <value reported>
41.3

$$$$
>  <compound>
O=C(NC1CC1)c1nc(COc2ccc3c(c2)OCO3)no1

>  <result unit>
%

>  <value reported>
35.1

$$$$
>  <compound>
N#Cc1nc(COc2ccc3c(c2)OCO3)oc1NC1CC1

>  <result unit>
%

>  <value reported>
47.1

$$$$
>  <compound>
COCCN(CCN(C)C)C(=O)NC1CC1

>  <result unit>
%

>  <value reported>
7.25

$$$$
>  <compound>
COc1cc(C)ccc1C(=O)N1C[C@@H](CN(C)CCO)[C@@H](CO)C1

>  <result unit>
%

>  <value reported>
-1.38

$$$$

Hi, could you look up INHIBITION for each item in my list?
1. CCN(CC)CC(=O)N(C)C(c1cccc(F)c1)c1ccccn1 (stereo unspecified)
2. CC(C)CNC(=O)c1nc(COc2ccc3c(c2)OCO3)no1
3. COCCN(C)C[C@H]1C[C@@H](CO)CN(C(=O)c2ccn(C)c(=O)c2)C1

output:
[-4.16, 57.7, 35.5]

Go through the list and state INHIBITION for each entry.
1. O=C(NC1CCCC1)c1nc(COc2ccc3c(c2)OCO3)no1
2. CC(C)c1nc(CN2CCCN(c3nccs3)CC2)no1
3. c1cc(-c2ccc3c(c2)CCC32CCN(c3nncs3)CC2)ccn1
4. Cc1nc(C2(NCC(=O)NCCc3cccs3)CCCC2)no1
5. CCS(=O)(=O)NCC1OCCc2cn(CC3CCOCC3)nc21 (stereo unspecified)
6. CN(C)S(=O)(=O)NCC1OCCc2cn(CC3CCOCC3)nc21 (stereo unspecified)
7. c1cncc(CN2Cc3nccn3CC(Cn3cccn3)C2)c1 (stereo unspecified)
8. Cc1nc(NC(=O)OC(C)(C)C)sc1C#N

output:
1. 62.9
2. 25.4
3. 62.8
4. -81.3
5. 66.8
6. 20.1
7. 30.3
8. 53.4
